Procedure details: NCI Yeast Anticancer Drug Screen. Data for the sgs1 mgt1 strain (AID 161);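 also: 0% = growth of cultures given vehicle only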
Measurement conditions: S. cerevisiae sgs1 mgt1 strain, at 50.0 µM, active compounds read high
This is part of a sample that, as a whole, favours compounds with a hit. Of some 79,000 tested, about 15% had one in any assay.
Listed below: growth inhibition values for each entry.
Readout name: growth inhibition (%)

# Compound, Observed value
measured = [
    ("COc1cc(C)c(O)c(C)c1C", -6.55),
    ("O=C1c2ccccc2C(=O)N1CCOCCOCCOCCN1C(=O)c2ccccc2C1=O", -0.75),
    ("CC(N)(CCSCP(=O)(O)O)C(=O)O (stereo not given)", -19.5),
    ("O=C(O)c1ccc(C(=O)O)c(C(=O)O)c1.[NH-]C1CCCCC1[NH-].[Pd+2]", 7.9),
    ("NC(=O)C(=Cn1c(=S)[nH]c2ccccc21)C(N)=O", -19.1),
    ("O=[N+]([O-])c1ccc(Cl)c(C=NC23CC4CC(CC(C4)C2)C3)c1", -29),
    ("CC(=O)c1ccc2ccccc2c1", 4.3),
    ("CC1(C)OC(=O)C=C([O-])O1.CC1(C)OC(=O)C=C([O-])O1.O=c1c(O)c(-c2ccc([O-])cc2[O-])oc2cc(O)cc(O)c12.[Ti+4]", -29.4),
    ("[N-]=[N+]=NCC1OCOC1C1OCOC1CN=[N+]=[N-] (stereo not given)", -4.05),
    ("Cc1ncc(CSc2ccccc2N)c(CO)c1O", -22.5),
    ("C=CCCCCCCCCC(=O)NCC1CCCCO1 (stereo not given)", 67.6),
    ("CC(=O)OCC1OC(n2c(Br)nc3c2c(=O)n(C)c(=O)n3C)C(OC(C)=O)C1OC(C)=O (stereo not given)", -14.3),
    ("CCNc1ccc(N=Nc2ccc(-c3ccc(N=Nc4ccc(NCC)c5ccccc45)c(OC)c3)cc2OC)c2ccccc12", 5.55),
    ("O=C(CC(=O)Nc1ccccc1)N/N=C/c1cc(N=Nc2ccc(Br)cc2)ccc1O", 53),
    ("Oc1ccc(Cl)cc1N1CCOCC1", 13.4),
    ("O=[N+]([O-])c1ccc(Sc2cccs2)c([N+](=O)[O-])c1", 18.9),
    ("NC(=O)c1nnc2ccc(F)cc2c1N", -23.2),
    ("O=c1[nH]cnc2c1ncn2CCCCO", 1.6),
    ("O=c1nc(NC(c2ccccc2)(c2ccccc2)c2ccccc2)ccn1CCCl", -1.5),
    ("CC(=O)OC(c1ccc2c(c1)OCO2)C(C)(C)C (stereo not given)", -7.3),
    ("O=C1O/C(=C(\\Br)c2ccccc2)c2ccccc21", 55.2),
    ("COc1cc(/C=N/N2CN(C(C)C(=O)O)B(NCCC(C)C)N=C2N)cc(OC)c1 (stereo not given)", 22),
    ("O=C(c1ccccc1)c1ccc2c(c1)-c1ccccc1-2", 15.1),
    ("COC(=O)C1CC(=O)CCC1c1ccccc1 (stereo not given)", -16.1),
    ("O=c1cc(-c2cccc3ccccc23)[nH]c2ncccc12", -21.9),
]
